Test system: CCRF-CEM
Experiment: selective drug sensitivity score (sDSS, relative to normal bone marrow) (sDSS (score)); higher = more potent and effective on the cell line relative to normal bone marrow cells;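 note: ALL cell lines in 384-well plates, five doses spanning 10,000-fold, each plate scaled between vehicle and 100 µmol/L benzalkonium chloride controls, sDSS an adapted area-under-curve metric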
Settings: 72 h
Quick rule for you: selective drug sensitivity score at 0 or higher means Yes, lower means No.

# example entries with known answers
>>> print(df.to_string())
                                   compound  target_or_test_system  assigned_category
0  C=CC(=O)Nc1cccc(Nc2nc(Nc3ccc(N4CCN(C(C)=O)CC4)cc3OC)ncc2C(F)(F)F)c1 [Rociletinib] (top concentration 10000 nM)               CCRF-CEM                Yes
1  Cc1nc(NC(=O)N2CCC[C@H]2C(N)=O)sc1-c1ccnc(C(C)(C)C(F)(F)F)c1 [Alpelisib] (top concentration 2500 nM)               CCRF-CEM                Yes
2  O=C(Nc1cc(Cl)cc2c1[nH]c1cnccc12)c1cccnc1 [PS-1145] (top concentration 25000 nM)               CCRF-CEM                 No

input: selective drug sensitivity score >= 0 for O=C(O)CC1CC(c2ccccc2)=NO1 (configuration not stated) [VGX-1027] (top concentration 10000 nM) ?
output: No

input: Decide: is the reported value of selective drug sensitivity score for CN(c1ncccc1CNc1nc(Nc2ccc3c(c2)CC(=O)N3)ncc1C(F)(F)F)S(C)(=O)=O (top concentration 10000 nM) equal to or greater than 0?
output: No

input: Kindly determine if selective drug sensitivity score recorded for Nc1ccccc1NC(=O)c1ccc(CNc2nccc(-c3cccnc3)n2)cc1 [Mocetinostat] (top concentration 10000 nM) is above or exactly 0.
output: Yes

* * *

List of selective drug sensitivity score values.
System: CCRF-HSB2
Assay: selective drug sensitivity score (sDSS, relative to normal bone marrow) (sDSS (score)); higher = more potent and effective on the cell line relative to normal bone marrow cells
Conditions: 72 h
Give only the figure.

Compound	Target or test system	selective drug sensitivity score
N#CC1(c2ccc(NC(=O)c3cccnc3NCc3ccncc3)cc2)CCCC1 [Apatinib] (top concentration 10000 nM)	CCRF-HSB2	0.3
Cn1ncc(Cl)c1-c1cc(C(=O)N[C@H](CN)Cc2ccc(F)c(F)c2)oc1Cl [Uprosertib] (top concentration 10000 nM)	CCRF-HSB2	0.7
CCCCCCCCc1ccc(CCC(N)(CO)CO)cc1 [Fingolimod] (top concentration 10000 nM)	CCRF-HSB2	0.48
CN1CCN(C2CCN(C(=O)Nc3cc(Oc4ccc(NC(=O)C5(C(=O)Nc6ccc(F)cc6)CC5)c(F)c4)ccn3)CC2)CC1 [Golvatinib] (top concentration 2500 nM)	CCRF-HSB2	2.96
CNC(=O)[C@@H](NC(=O)[C@H](CC(C)C)[C@H](O)C(=O)NO)C(C)(C)C [Marimastat] (top concentration 10000 nM)	CCRF-HSB2	-0.78

Now examine the next entry.
input: Which selective drug sensitivity score value belongs to Nc1cccc2c1C(=O)N(C1CCC(=O)NC1=O)C2=O (stereo unspecified) [Pomalidomide] (top concentration 10000 nM) ?
output: -0.26

* * *

# Lookup of reported selective drug sensitivity score keyed by entry
System: COG-LL-332h
Experiment: selective drug sensitivity score (sDSS, relative to normal bone marrow) (sDSS (score)); higher = more potent and effective on the cell line relative to normal bone marrow cells
Details: 72 h
API doc: respond with a numeric literal and nothing else, no unit.

Example cases with answers are listed next.
Molecule	selective drug sensitivity score
FC(F)(F)c1ccc(CNc2ccc(Cc3c[nH]c4ncc(Cl)cc34)cn2)cn1 [Pexidartinib] (top concentration 10000 nM)	-2.22
CCN(CC)CCNC(=O)c1c(C)[nH]c(/C=C2\C(=O)Nc3ccc(F)cc32)c1C [Sunitinib] (top concentration 1000 nM)	-1.44

input: What does the data say about its selective drug sensitivity score? Entry: CCCCC(=O)OCC(=O)[C@]1(O)Cc2c(O)c3c(c(O)c2[C@@H](O[C@H]2C[C@H](NC(=O)C(F)(F)F)[C@H](O)[C@H](C)O2)C1)C(=O)c1c(OC)cccc1C3=O [Valrubicin] (top concentration 5000 nM)
output: 11.2

* * *

Tested on: COG-LL-402h
Assay: selective drug sensitivity score (sDSS, relative to normal bone marrow) (sDSS (score)); higher = more potent and effective on the cell line relative to normal bone marrow cells
Conditions: 72 h
Quantity name: selective drug sensitivity score
API note: the answer field is a bare number with no unit suffix.

>>> df
                                   compound  measured_result
0  CN1CCN(C(=O)c2ccc3cc(CCNc4ncnc5ccc(C#N)cc45)ccc3c2)CC1 [Senexin_B] (top concentration 1000 nM)             -0.4
1  O=C(NCc1ccncc1)C12CC3CC(C1)CC(c1ccc(Cl)cc1)(C3)C2 (top concentration 50000 nM)             0.08
2  NC1(c2ccc(-c3nc4ccn5c(=O)[nH]nc5c4cc3-c3ccccc3)cc2)CCC1 [MK-2206] (top concentration 1000 nM)             2.76
3  Nc1nc(Nc2ccc3c(c2)CC[C@@H](N2CCCC2)CC3)nn1-c1cc2c(nn1)-c1ccccc1CCC2 [BGB324] (top concentration 10000 nM)             2.32
4  O=C(O)CC[C@H]1CC[C@@](c2cc(F)ccc2F)(S(=O)(=O)c2ccc(Cl)cc2)CC1 [MK-0752] (top concentration 1000 nM)                0

Could you now look at the following compound, please?
input: Report selective drug sensitivity score for CC[C@@H]1[C@H](F)C(=O)N[C@@H]1COc1nccc2cc(C(N)=O)c(OC)cc12 (top concentration 10000 nM) please.
output: 3.08

* * *

Test system: MOLT-14
Test: selective drug sensitivity score (sDSS, relative to normal bone marrow) (sDSS (score)); higher = more potent and effective on the cell line relative to normal bone marrow cells
Settings: 72 h
Quantity name: selective drug sensitivity score

input: // lookup selective drug sensitivity score for Nc1ncnc2c1c(-c1cccc(OCc3ccccc3)c1)cn2[C@H]1C[C@@H](CN2CCC2)C1 [NVP-AEW541] (top concentration 10000 nM)
output: -1.62

input: May I ask what selective drug sensitivity score has been recorded for O=S(=O)(c1cccc2c(O)nccc12)N1CCCNCC1 [Hydroxyfasudil] (top concentration 19000 nM) ?
output: -0.92

input: Please give the measured selective drug sensitivity score for this molecule: N.N.[Cl][Pt][Cl] [Cisplatin] (top concentration 100000 nM)
output: 18.6

input: Request the reported selective drug sensitivity score associated with Cn1cc(CNCC2CCN(c3ncc(C(=O)NO)cn3)CC2)c2ccccc21 [Quisinostat] (top concentration 1000 nM)
output: 6.98

* * *

selective drug sensitivity score for assorted compounds
System: KASUMI-9
Assay: selective drug sensitivity score (sDSS, relative to normal bone marrow) (sDSS (score)); higher = more potent and effective on the cell line relative to normal bone marrow cells
Conditions: 72 h
Respond numerically, and do not add a unit to the figure.

Compound	selective drug sensitivity score
Nc1ncnc2c1c(-c1cccc(OCc3ccccc3)c1)cn2[C@H]1C[C@@H](CN2CCC2)C1 [NVP-AEW541] (top concentration 10000 nM)	-2.72
COc1cc2c(Nc3ccc(Cl)c(Cl)c3F)ncnc2cc1OC[C@@H]1C[C@@H]2CN(C)C[C@@H]2C1 [Tesevatinib] (top concentration 1000 nM)	0.74
N.N.[Cl][Pt][Cl] [Cisplatin] (top concentration 100000 nM)	12.3

Turning now to a further record.
input: What value of measured selective drug sensitivity score is listed for CONC(=O)c1ccccc1Nc1cc(Nc2cc(C)nn2C(C)C)ncc1Cl (top concentration 1000 nM) ?
output: -0.94

* * *

Entries annotated with measured selective drug sensitivity score
System: KASUMI-9
Assay: selective drug sensitivity score (sDSS, relative to normal bone marrow) (sDSS (score)); higher = more potent and effective on the cell line relative to normal bone marrow cells
Settings: 72 h

Compound	selective drug sensitivity score
C=CC(=O)N1CC/C(=C\c2ccc(F)c([N+](=O)[O-])c2)C(=O)/C(=C/c2ccc(F)c([N+](=O)[O-])c2)C1 [VLX1570] (top concentration 10000 nM)	0.88
CCCCNc1ncc(C(=O)NCc2ccc(-n3ccnc3)cc2)c(NC2CCC(O)CC2)n1 (stereo unspecified) [UNC2881] (top concentration 2500 nM)	0
C[C@]1(O)C[C@@H](c2nc(-c3ccc4ccc(-c5ccccc5)nc4c3)c3c(N)nccn32)C1 [Linsitinib] (top concentration 10000 nM)	-2.98
CN[C@@H]1C[C@H]2O[C@@](C)([C@@H]1OC)n1c3ccccc3c3c4c(c5c6ccccc6n2c5c31)C(=O)N[C@H]4O [UCN-01] (top concentration 10000 nM)	9.34
Nc1nc(Nc2ccc3c(c2)CC[C@@H](N2CCCC2)CC3)nn1-c1cc2c(nn1)-c1ccccc1CCC2 [BGB324] (top concentration 10000 nM)	5.22

// moving on: another record for selective drug sensitivity score
input: Which measured selective drug sensitivity score value corresponds to CC(=O)c1cc2c(o1)C(=O)c1ccccc1C2=O [Napabucasin] (top concentration 20000 nM) ?
output: -1.28
